Test Name: MTT cytotoxicity assay, colorectal cancer
Format: cell-based, human
Test Parameters: human, SW480 cells (colorectal cancer)
Measure: viability at 50 μg/mL (%)
Answers are plain numbers, in %.

Compound	Units Text	Measured Value
CC(C)=CCc1c(O)c(CC=C(C)C)c2occ(-c3ccc(O)cc3)c(=O)c2c1O [Compound 10, 6,8-diprenylgenistein]	%	94.7
CC(C)=CCc1c2c(c3occ(-c4ccc(O)cc4)c(=O)c3c1O)CC(C(C)(C)O)O2 (stereo not shown) [Compound 16, senegalensin]	%	6.6

Each of the following entries comes with a recorded value; kindly state viability at 50 μg/mL for each.
1. COc1cccc2c1C(=O)c1c(O)c3c(c(O)c1C2=O)C[C@@](O)(C(=O)CO)C[C@@H]3O[C@H]1C[C@H](N)[C@H](O)[C@H](C)O1 [doxorubicin, reference compound]
2. C=C(C)C(O)Cc1c(O)c(CC=C(C)C)c2occ(-c3ccc(O)cc3)c(=O)c2c1O (stereo not shown) [Compound 13, isoerysenegalensein E]

[17.8, 89.5]

# credit: paper PMC9301698
